From: patent US20060223846A1

Molecular target: human α4β7 (Homo sapiens, UniProt P13612+P26010)
Construct: expressed in transfected cells
Sequence (P13612 34-1032): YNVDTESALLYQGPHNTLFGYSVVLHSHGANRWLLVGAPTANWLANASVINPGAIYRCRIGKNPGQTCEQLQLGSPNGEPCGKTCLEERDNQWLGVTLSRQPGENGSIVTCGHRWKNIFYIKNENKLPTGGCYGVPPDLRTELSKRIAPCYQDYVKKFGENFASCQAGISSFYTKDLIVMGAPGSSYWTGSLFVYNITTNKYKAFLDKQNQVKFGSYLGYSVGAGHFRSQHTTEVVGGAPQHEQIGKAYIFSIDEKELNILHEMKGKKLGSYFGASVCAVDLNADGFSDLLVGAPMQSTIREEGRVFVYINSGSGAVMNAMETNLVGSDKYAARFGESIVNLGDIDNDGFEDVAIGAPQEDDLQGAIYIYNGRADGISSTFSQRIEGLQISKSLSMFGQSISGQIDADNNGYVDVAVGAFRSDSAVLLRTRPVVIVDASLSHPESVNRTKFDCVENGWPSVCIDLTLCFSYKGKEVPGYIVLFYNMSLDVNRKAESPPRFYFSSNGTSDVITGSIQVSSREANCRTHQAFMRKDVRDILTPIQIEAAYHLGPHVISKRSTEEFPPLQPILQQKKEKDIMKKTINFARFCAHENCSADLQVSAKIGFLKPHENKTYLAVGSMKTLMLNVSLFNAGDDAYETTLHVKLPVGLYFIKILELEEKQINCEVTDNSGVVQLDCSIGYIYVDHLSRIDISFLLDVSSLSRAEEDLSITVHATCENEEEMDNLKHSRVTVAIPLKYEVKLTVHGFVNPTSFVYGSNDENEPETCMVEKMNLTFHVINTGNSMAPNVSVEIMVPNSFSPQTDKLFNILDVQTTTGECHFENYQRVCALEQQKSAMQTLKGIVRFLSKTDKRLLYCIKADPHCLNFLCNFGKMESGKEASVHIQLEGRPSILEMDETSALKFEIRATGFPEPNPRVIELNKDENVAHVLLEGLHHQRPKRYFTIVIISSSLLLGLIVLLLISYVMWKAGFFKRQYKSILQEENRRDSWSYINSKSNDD
Sequence (P26010 20-798): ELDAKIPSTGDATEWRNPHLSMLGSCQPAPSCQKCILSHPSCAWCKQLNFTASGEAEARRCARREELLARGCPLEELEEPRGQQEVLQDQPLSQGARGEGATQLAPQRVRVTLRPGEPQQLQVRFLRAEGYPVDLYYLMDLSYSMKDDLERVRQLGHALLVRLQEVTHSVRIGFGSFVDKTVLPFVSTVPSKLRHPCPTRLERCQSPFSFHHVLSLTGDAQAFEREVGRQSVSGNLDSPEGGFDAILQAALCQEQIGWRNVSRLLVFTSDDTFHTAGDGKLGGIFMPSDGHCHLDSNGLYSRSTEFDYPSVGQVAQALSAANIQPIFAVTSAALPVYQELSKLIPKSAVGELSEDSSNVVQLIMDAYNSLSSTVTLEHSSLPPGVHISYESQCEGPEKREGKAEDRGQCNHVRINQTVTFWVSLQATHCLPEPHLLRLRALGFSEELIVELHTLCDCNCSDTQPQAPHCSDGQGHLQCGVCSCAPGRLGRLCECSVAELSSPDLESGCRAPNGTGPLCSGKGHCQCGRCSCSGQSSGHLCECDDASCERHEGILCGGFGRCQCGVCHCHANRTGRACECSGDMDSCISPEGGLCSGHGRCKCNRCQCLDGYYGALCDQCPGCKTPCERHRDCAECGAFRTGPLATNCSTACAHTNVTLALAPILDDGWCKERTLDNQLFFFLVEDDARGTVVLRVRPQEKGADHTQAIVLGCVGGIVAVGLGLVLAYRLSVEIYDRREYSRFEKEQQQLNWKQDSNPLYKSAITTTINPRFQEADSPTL
Assay: α4β7-K562 Cell Adhesion Assay (α4β7 Mediated Adhesion/VCAM-1)
Format: cell-based
Settings: repeated in leukocytosis table, unit inferred; read-out: α4β7
ASSAY METRIC: IC50 (nM)
Give the number; nM is assumed, so skip it.

Look up and report measured IC50 (human α4β7 (Homo sapiens, UniProt P13612+P26010)) for the following molecule: O=C(Nc1ccc(CC(NC(=O)C2C3CCC(CC3)N2C(=O)CCc2ccccc2)C(=O)O)cc1)c1c(Cl)cncc1Cl (stereo not shown)
7
